organism: Rattus norvegicus; experiment: DrugMatrix - Regimen: Daily Repeat; format: toxicity, organism-based, Sprague-Dawley; design: regimen Daily Repeat, gender Male, age 6-8 weeks; settings: in vivo, po, 0 mg/kg, 120 h, tissue Plasma, route oral GAVAGE, dose level Control, time 5 day, vehicle .5 % CMC
TOTAL BILIRUBIN values by entry
Recorded Endpoint: TOTAL BILIRUBIN (mg/dL)

>>> endpoint_result("C[C@H]1[C@H](NC(=O)/C(=N\\OC(C)(C)C(=O)O)c2csc(N)n2)C(=O)N1S(=O)(=O)O")
0.2
>>> endpoint_result("CCCCC1=NC2(CCCC2)C(=O)N1Cc1ccc(-c2ccccc2-c2nnn[nH]2)cc1")
0.0833
>>> endpoint_result("COc1cc(OC)c(C(=O)CCCN2CCCC2)c(OC)c1")
0.18
>>> endpoint_result("CN(C)C(=O)C(CCN1CCC(O)(c2ccc(Cl)cc2)CC1)(c1ccccc1)c1ccccc1 [LOPERAMIDE]")
0.2
>>> endpoint_result("CN1C(=O)CN=C(c2ccccc2)c2cc([N+](=O)[O-])ccc21")
0.53
>>> endpoint_result("C#C[C@]1(O)CC[C@H]2[C@@H]3CCC4=CC(=O)CC[C@]4(C)[C@H]3CC[C@@]21C")
0.58
>>> endpoint_result("C[C@]12CC[C@@H]3c4ccc(O)cc4CC[C@H]3[C@@H]1C[C@@H](O)[C@@H]2O")
0.2
>>> endpoint_result("COc1ccccc1[N+](=O)[O-]")
0.22
>>> endpoint_result("NC(=O)N1c2ccccc2CC(=O)c2ccccc21 [OXCARBAZEPINE]")
0.18
>>> endpoint_result("CCCNC(=O)NS(=O)(=O)c1ccc(Cl)cc1 [CHLORPROPAMIDE]")
0.57
>>> endpoint_result("C[C@@](Cc1ccc(O)c(O)c1)(NN)C(=O)O.O")
0.2
>>> endpoint_result("CCC1=C(C)CN(C(=O)NCCc2ccc(S(=O)(=O)NC(=O)N[C@H]3CC[C@H](C)CC3)cc2)C1=O [GLIMEPIRIDE]")
0.2

* * *

organism: Rattus norvegicus; test: DrugMatrix - Regimen: Daily Repeat; assay type: toxicity, organism-based, Sprague-Dawley; set-up: regimen Daily Repeat, gender Male, age 6-8 weeks; settings: in vivo, ip, 0 mg/kg, […], tissue Blood, route intraperitoneal, dose level Control, time 14 day, vehicle 100 % SALINE
Recorded Endpoint: ABSOLUTE SEGMENTED NEUTROPHIL (cells/µL)

>>> endpoint_result("COBALTOUS CHLORIDE")
2330
>>> endpoint_result("TRANSPLATIN")
2330

* * *

ABSOLUTE MONOCYTE values by entry
species: Rattus norvegicus; assay: DrugMatrix - Regimen: Daily Repeat; type: toxicity, organism-based, Sprague-Dawley; parameters: regimen Daily Repeat, gender Male, age 6-8 weeks; conditions: in vivo, po, 0 mg/kg, 120 h, tissue Blood, route oral GAVAGE, dose level Control, time 5 day, vehicle .5 % CMC
Recorded Endpoint: ABSOLUTE MONOCYTE

>>> endpoint_result("C[C@@H]1O[C@@H](O[C@H]2C[C@@H](O)[C@]3(CO)[C@H]4[C@H](O)C[C@]5(C)[C@@H](C6=CC(=O)OC6)CC[C@]5(O)[C@@H]4CC[C@]3(O)C2)[C@H](O)[C@H](O)[C@H]1O")
"52.83 CELLS/uL"
>>> endpoint_result("CN(C)CCN(Cc1cccs1)c1ccccn1")
"330 cells/µL"
>>> endpoint_result("CN(C)C(=O)C(CCN1CCC(O)(c2ccc(Cl)cc2)CC1)(c1ccccc1)c1ccccc1 [LOPERAMIDE]")
"303.83 CELLS/uL"
>>> endpoint_result("CCOc1nc2cccc(C(=O)O)c2n1Cc1ccc(-c2ccccc2-c2nnn[nH]2)cc1")
"203.17 CELLS/uL"
>>> endpoint_result("C[C@]12CC[C@@H]3c4ccc(O)cc4CC[C@H]3[C@@H]1C[C@@H](O)[C@@H]2O")
"139.83 CELLS/uL"
>>> endpoint_result("C[C@H]1[C@H](NC(=O)/C(=N\\OC(C)(C)C(=O)O)c2csc(N)n2)C(=O)N1S(=O)(=O)O")
"29.17 CELLS/uL"
>>> endpoint_result("CCC1=C(C)CN(C(=O)NCCc2ccc(S(=O)(=O)NC(=O)N[C@H]3CC[C@H](C)CC3)cc2)C1=O [GLIMEPIRIDE]")
"303.83 CELLS/uL"

* * *

ABSOLUTE EOSINOPHIL values by entry
species: Rattus norvegicus; assay: DrugMatrix - Regimen: Daily Repeat; format: toxicity, organism-based, Sprague-Dawley; design: regimen Daily Repeat, gender Male, age 6-8 weeks; details: in vivo, po, 0 mg/kg, 120 h, tissue Blood, route oral GAVAGE, dose level Control, time 5 day, vehicle 100 % WATER
Recorded Endpoint: ABSOLUTE EOSINOPHIL

>>> endpoint_result("NC12CC3CC(CC(C3)C1)C2 [AMANTADINE]")
"19.33 CELLS/uL"
>>> endpoint_result("NC(=O)c1cccnc1 [NIACINAMIDE]")
"23.5 CELLS/uL"
>>> endpoint_result("CN(C)CCC=C1c2ccccc2CCc2ccccc21 [AMITRIPTYLINE]")
"19.33 CELLS/uL"
>>> endpoint_result("CCCC(C)C1(CC)C(=O)NC(=O)NC1=O (stereo not drawn) [PENTOBARBITAL]")
"31.17 CELLS/uL"
>>> endpoint_result("O=c1[nH]c(=O)n(C2CCCO2)cc1F (stereo not drawn) [TEGAFUR]")
"0 CELLS/uL"
>>> endpoint_result("CN(C)C(=O)Oc1cccc([N+](C)(C)C)c1.[Br-] [NEOSTIGMINE BROMIDE]")
"31.17 CELLS/uL"
>>> endpoint_result("CCN(C(C)=O)c1cccc(-c2ccnc3c(C#N)cnn23)c1 [ZALEPLON]")
"19.33 CELLS/uL"
>>> endpoint_result("CNC1=Nc2ccc(Cl)cc2C(c2ccccc2)=[N+]([O-])C1 [CHLORDIAZEPOXIDE]")
"21 CELLS/uL"

* * *

species: Rattus norvegicus; experiment: DrugMatrix - Regimen: Daily Repeat; assay type: toxicity, organism-based, Sprague-Dawley; set-up: regimen Daily Repeat, gender Male, age 6-8 weeks; conditions: in vivo, po, 10 mg/kg, […], tissue Blood, route oral GAVAGE, dose level Low, time 14 day, vehicle .5 % CMC
Recorded Endpoint: ABSOLUTE BASOPHIL

>>> endpoint_result("CN(C)CCN(Cc1cccs1)c1ccccn1")
"83.3 cells/µL"

* * *

species on record: Rattus norvegicus; assay: DrugMatrix - Regimen: Daily Repeat; assay type: toxicity, organism-based, Sprague-Dawley; design: regimen Daily Repeat, gender Male, age 6-8 weeks; conditions: in vivo, po, 0 mg/kg, 72 h, tissue Plasma, route oral GAVAGE, dose level Control, time 3 day, vehicle 100 % WATER
POTASSIUM values by entry
Recorded Endpoint: POTASSIUM (MEQ/L)

>>> endpoint_result("O=c1[nH]c(=O)n(C2CCCO2)cc1F (stereo unspecified)")
6.78
>>> endpoint_result("NC(=O)c1cccnc1 [NIACINAMIDE]")
6.35
>>> endpoint_result("CCN(CC)CCNC(=O)c1ccc(N)cc1 [PROCAINAMIDE]")
6.72
>>> endpoint_result("CCN(C(C)=O)c1cccc(-c2ccnc3c(C#N)cnn23)c1")
6.12
>>> endpoint_result("C#Cc1cccc(Nc2ncnc3cc(OCCOC)c(OCCOC)cc23)c1")
6.72
>>> endpoint_result("CN(C)C(=O)Oc1cccc([N+](C)(C)C)c1.[Br-] [NEOSTIGMINE BROMIDE]")
6.34
>>> endpoint_result("CCN(CC)CCOC(=O)C1(C2CCCCC2)CCCCC1")
7.03
>>> endpoint_result("CNC1=Nc2ccc(Cl)cc2C(c2ccccc2)=[N+]([O-])C1 [CHLORDIAZEPOXIDE]")
6.16
>>> endpoint_result("CCCC(C)C1(CC)C(=O)NC(=O)NC1=O (stereo unspecified)")
6.34
>>> endpoint_result("NC12CC3CC(CC(C3)C1)C2")
6.12
>>> endpoint_result("CN(C)CCC=C1c2ccccc2CCc2ccccc21")
6.12

* * *

species on record: Rattus norvegicus; test: DrugMatrix - Regimen: Daily Repeat; format: toxicity, organism-based, Sprague-Dawley; parameters: regimen Daily Repeat, gender Male, age 6-8 weeks; conditions: in vivo, po, 0 mg/kg, 72 h, tissue Blood, route oral GAVAGE, dose level Control, time 3 day, vehicle .5 % CMC
Criterion: MONOCYTE strictly under 2%. Met: true. Not met: false.

>>> cat("C#C[C@]1(O)CC[C@H]2[C@@H]3CCC4=CC(=O)CC[C@]4(C)[C@H]3CC[C@@]21C")
"false"
>>> cat("CCn1cc(C(=O)O)c(=O)c2cc(F)c(N3CCNC(C)C3)c(F)c21 (centres undefined)")
"true"
>>> cat("CN1C(=O)CN=C(c2ccccc2)c2cc([N+](=O)[O-])ccc21")
"false"
>>> cat("CCOc1nc2cccc(C(=O)O)c2n1Cc1ccc(-c2ccccc2-c2nnn[nH]2)cc1")
"true"
>>> cat("CCC1=C(C)CN(C(=O)NCCc2ccc(S(=O)(=O)NC(=O)N[C@H]3CC[C@H](C)CC3)cc2)C1=O [GLIMEPIRIDE]")
"true"
>>> cat("COc1ccc2c(c1OC)C(=O)O[C@@H]2[C@H]1c2c(cc3c(c2OC)OCO3)CCN1C")
"false"
>>> cat("NC(=O)N1c2ccccc2CC(=O)c2ccccc21 [OXCARBAZEPINE]")
"true"
>>> cat("CCCCC1=NC2(CCCC2)C(=O)N1Cc1ccc(-c2ccccc2-c2nnn[nH]2)cc1")
"false"
>>> cat("C[C@H]1[C@H](NC(=O)/C(=N\\OC(C)(C)C(=O)O)c2csc(N)n2)C(=O)N1S(=O)(=O)O")
"true"

Where do these numbers come from? They come from ChEMBL document CHEMBL3885881.
